Measured pKd, listed per entry for reference.
# Target Of Assay: T1, human IgE CH3-CH4-M1′/Fc fusion protein (human)
# T1 construct: also called M1′ (immobilized)
# T1 sequence (chain, as listed by the source limits assumed): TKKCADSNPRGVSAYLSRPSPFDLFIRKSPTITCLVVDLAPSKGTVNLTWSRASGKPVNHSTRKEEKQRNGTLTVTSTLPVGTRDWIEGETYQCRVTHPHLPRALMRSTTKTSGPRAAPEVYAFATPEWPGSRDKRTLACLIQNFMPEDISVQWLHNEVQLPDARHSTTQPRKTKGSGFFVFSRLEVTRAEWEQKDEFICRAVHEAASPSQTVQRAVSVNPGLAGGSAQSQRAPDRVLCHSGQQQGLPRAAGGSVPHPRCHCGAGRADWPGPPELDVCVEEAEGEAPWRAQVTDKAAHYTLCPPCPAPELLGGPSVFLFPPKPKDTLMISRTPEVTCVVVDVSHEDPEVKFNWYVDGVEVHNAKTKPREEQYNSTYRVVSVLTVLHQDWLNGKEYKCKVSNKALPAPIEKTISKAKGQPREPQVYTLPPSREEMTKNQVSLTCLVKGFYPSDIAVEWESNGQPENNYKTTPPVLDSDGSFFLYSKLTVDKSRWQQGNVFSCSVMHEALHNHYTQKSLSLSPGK
# Run Description: SPR Biacore A100, M1′ immobilized
Units for pKd: none; it is -log10 of a concentration expressed in mol/L.

Binder | Measurement
humanized anti-IgE/M1′ antibody 47H4.v2 (antibody, V domains shown, produced as IgG) VH: EVQLVESGGGLVQPGGSLRLSCAASGFTFSDYGMAWVRQAPGKGLEWVAFISDLAYTIYYADTVTGRFTISRDNSKNTLYLQMNSLRAEDTAVYYCARDNWDAMDYWGQGTLVTVSS VL: DIQMTQSPSSLSASVGDRVTITCRSSQSLVHNNANTYLHWYQQKPGKAPKLLIYKVSNRFSGVPSRFSGSGSGTDFTLTISSLQPEDFATYYCSQNTLVPWTFGQGTKVEIKR | 8.13
humanized anti-IgE/M1′ antibody 26A11.v6 (antibody, V domains shown, huIgG1; also called 26A11v6 huIgG1) VH: EVQLVESGGGLVQPGGSLRLSCAASGYTFTDYYIMWVRQAPGKGLEWVGDINPNNYDTSYNQKFKGRFTISADTSKNTAYLQMNSLRAEDTAVYYCASKAYWGQGTLVTVSS VL: DIQMTQSPSSLSASVGDRVTITCRSSQDISNYLNWYQQKPGKAPKLLIYSTSRLHSGVPSRFSGSGSGTDFTLTISSLQPEDFATYYCQQGHTLPWTFGQGTKVEIKR | 8.59

Next item in the queue.
Just so you know, measured pKd for humanized anti-IgE/M1′ antibody 26A11.v1 (antibody, V domains shown, direct CDR graft, produced as IgG in 293 cells) VH: EVQLVESGGGLVQPGGSLRLSCAASGYTFTDYYMMWVRQAPGKGLEWVGDINPNNYDTSYNQKFKGRFTISADTSKNTAYLQMNSLRAEDTAVYYCASKAYWGQGTLVTVSS VL: DIQMTQSPSSLSASVGDRVTITCRSSQDISNSLNWYQQKPGKAPKLLIYSTSRLHSGVPSRFSGSGSGTDFTLTISSLQPEDFATYYCQQGHTLPWTFGQGTKVEIKR came out at 9.70

Data origin, for the record: patent US20120149881A1
